This collection of values is drawn from patent US7566733B2.

- Test system: castrated male Sprague Dawley rats
- test name: Ventral Prostate and Seminal Vesicle Weight In Vivo Assay; further: key: active: the non weight adjusted prostate weight was ≦40 mg or the % Inhibition prostate weight, body weight adjusted was ≧40%@2 mg/day dosage; inactive: did not meet the specified criteria defined above
- assay context: inhibition of testosterone-enhanced prostate weight; immature castrated rats, once daily for five days, usually orally 40 mg/kg, with testosterone propionate 2 mg/kg s.c.

molecule: CCSCC(C)(O)c1nc2cc(Cl)c(Cl)cc2n1C (stereo not drawn)
assayed system: castrated male Sprague Dawley rats
Activity: active

molecule: O=C(Cn1c(CC(F)(F)F)nc2cc(Cl)c(Cl)cc21)c1cccnc1
assayed system: castrated male Sprague Dawley rats
Activity: inactive

molecule: OCCn1c(CC(F)(F)F)nc2cc(Cl)c(Cl)cc21
assayed system: castrated male Sprague Dawley rats
Activity: active

molecule: CCC(O)Cn1c(CC(F)(F)F)nc2cc(Cl)c(Cl)cc21 (stereo not drawn)
assayed system: castrated male Sprague Dawley rats
Activity: active

molecule: Cn1c(C(C)(O)CCl)nc2cc(Cl)c(Cl)cc21 (stereo not drawn)
assayed system: castrated male Sprague Dawley rats
Activity: active

molecule: O=C(Cn1c(CC(F)(F)F)nc2cc(Cl)c(Cl)cc21)c1ccc(Br)cc1
assayed system: castrated male Sprague Dawley rats
Activity: inactive

molecule: FC(F)(F)Cc1nc2cc(Cl)c(Cl)cc2n1Cc1ccccc1
assayed system: castrated male Sprague Dawley rats
Activity: active

molecule: N#Cc1ccc(Cn2c(CC(F)(F)F)nc3cc(Cl)c(Cl)cc32)cc1
assayed system: castrated male Sprague Dawley rats
Activity: active

molecule: O=C(Cn1c(CC(F)(F)F)nc2cc(Cl)c(Cl)cc21)c1cc2ccccc2o1
assayed system: castrated male Sprague Dawley rats
Activity: inactive

molecule: FC(F)(F)Cc1nc2cc(Cl)c(Cl)cc2n1Cc1ccc(Br)cc1
assayed system: castrated male Sprague Dawley rats
Activity: active

molecule: O=C(Cn1c(CC(F)(F)F)nc2cc(Cl)c(Cl)cc21)c1cccc([N+](=O)[O-])c1
assayed system: castrated male Sprague Dawley rats
Activity: inactive

molecule: FC(F)(F)Cc1nc2cc(Cl)c(Cl)cc2n1Cc1ccc(Cl)cc1
assayed system: castrated male Sprague Dawley rats
Activity: active

molecule: FC(F)(F)Cc1nc2cc(Cl)c(Cl)cc2n1Cc1ccc(-n2cccc2)cc1
assayed system: castrated male Sprague Dawley rats
Activity: active

molecule: CCCn1c(C(C)(O)C(F)(F)F)nc2cc(Cl)c(Cl)cc21 (stereo not drawn)
assayed system: castrated male Sprague Dawley rats
Activity: active

molecule: COc1ccccc1C(=O)Cn1c(CC(F)(F)F)nc2cc(Cl)c(Cl)cc21
assayed system: castrated male Sprague Dawley rats
Activity: inactive

molecule: O=[N+]([O-])c1ccccc1Cn1c(CC(F)(F)F)nc2cc(Cl)c(Cl)cc21
assayed system: castrated male Sprague Dawley rats
Activity: active

molecule: OC(c1nc2cc(Cl)c(Cl)cc2[nH]1)C(F)(F)F (racemic)
assayed system: castrated male Sprague Dawley rats
Activity: active

molecule: CCOC(=O)Cn1c(CC(F)(F)F)nc2cc(Cl)c(Cl)cc21
assayed system: castrated male Sprague Dawley rats
Activity: inactive
